What Plant response rating, Velvetleaf was measured for each of the following?
# Test system: velvetleaf
# TEST: Test A pre-/postemergence herbicide test
# Assay type: in vivo, Abutilon theophrasti
# ASSAY_CONTEXT: Postemergence, 2000 g ai/ha; 0 to 100 scale, 0 no effect, 100 complete control
# Text: […] Plants ranged in height from 2 to 10 cm and were in the one- to two-leaf stage for the postemergence treatment. Treated plants and untreated controls were maintained in a greenhouse for approximately ten days, after which time all treated plants were compared to untreated controls and visually evaluated for injury. […]
Answers are plain numbers.

Reference set (5 entries):
CHEMICAL_SMILES: C=Cn1nc(C(C)(C)C)cc1C(=O)Nc1cccc(C(=O)OCC)c1
Plant response rating, Velvetleaf: 50

CHEMICAL_SMILES: C#CCNC(=O)c1cccc(NC(=O)c2sc(C(C)(C)C)nc2C)c1
Plant response rating, Velvetleaf: 10

CHEMICAL_SMILES: CC(=O)c1cc(NC(=O)c2cc(C(C)(C)C)nn2C)ccc1F
Plant response rating, Velvetleaf: 10

CHEMICAL_SMILES: CC(=NO)c1cccc(NC(=O)c2cc(C(C)(C)C)nn2CC(F)(F)F)c1
Plant response rating, Velvetleaf: 35

CHEMICAL_SMILES: Cn1nc(C(C)(C)C)cc1C(=O)Nc1cccc2c1CCCC2=NO
Plant response rating, Velvetleaf: 0

Provide Plant response rating, Velvetleaf for all items below, preserving their order.
1. CCc1nn(C2CCCC2)nc1C(=O)Nc1cccc(C(=O)N(C)C)c1
2. CCn1nc(C(C)(C)C)cc1C(=O)Nc1cccc(OC(F)(F)F)c1
3. CC(=NO)c1cccc(NC(=O)c2cc(C(C)(C)C)nn2C)c1

[65, 100, 20]

----------
# Tested on: Surinam grass
# TEST: Test B pre-/postemergence herbicide test
# Type: in vivo, Urochloa decumbens
# ASSAY_CONTEXT: 500 g ai/ha; visual rating 0-100, 0 no effect, 100 complete control; preemergence
Please go through the items and note down their Plant response rating, Surinam Grass.
Give bare numbers.

Dear colleague, could you please provide Plant response rating, Surinam Grass for the molecules listed below?
1. CCn1nc(C(C)(C)C)cc1C(=O)Nc1nc(OC)cc(SCF)n1
2. CCn1nc(C(C)(C)C)cc1C(=O)Nc1cccc(C(=O)OCC2CC2)c1C
3. CCc1nn(C(C)(C)C)cc1C(=O)Nc1cccc(C(C)=NO)c1
4. CCC(=NO)c1cccc(NC(=O)c2cc(C(C)(C)C)nn2C)c1
5. CC(=NO)c1cccc(NC(=O)c2cc(C(C)(C)C)nn2CC(F)(F)F)c1

1: 0; 2: 0; 3: 70; 4: 50; 5: 20

----------
# Test system: morningglory
# TEST: Test C pre-/postemergence herbicide test
# Type: in vivo, Ipomoea coccinea
# Design: key: 0 = no effect, 100 = complete control
# ASSAY_CONTEXT: 500 g ai/ha; scale 0 to 100 (0 no effect, 100 complete control); visual, 12 to 14 days; preemergence
Exercise: state measured Plant response rating, Morningglory for each of the compounds provided.
Answers are plain numbers.

CHEMICAL_SMILES: CCn1nc(C2(C)CC2)cc1C(=O)Nc1cccc(C(=O)N2CC=CC2)c1
VALUE_KIND: Plant response rating, Morningglory
ENDPOINT_VALUE: 10

Batch lookup, Plant response rating, Morningglory per entry.
1. CCc1nc(C(C)(C)C)sc1C(=O)Nc1cccc(C(=O)NCC2CC2)n1
2. CCc1nn(C(C)(C)C)nc1C(=O)Nc1cccc(C(=O)NC2CC2)c1
3. CCN(CC)C(=O)c1cccc(NC(=O)c2nn(C(C)(C)C)nc2C)c1

40
95
100

meta.source: patent US20060069132A1
